Data origin, for the record: patent US20070149763A1

experimentalTarget: BACE (recombinant human BACE catalytic domain, expressed in CHO cells as BACE-T-IgG, IgG1 removed with thrombin) (human) (UniProt P56817)
Sequence (P56817 43-460 limits assumed, form in doubt): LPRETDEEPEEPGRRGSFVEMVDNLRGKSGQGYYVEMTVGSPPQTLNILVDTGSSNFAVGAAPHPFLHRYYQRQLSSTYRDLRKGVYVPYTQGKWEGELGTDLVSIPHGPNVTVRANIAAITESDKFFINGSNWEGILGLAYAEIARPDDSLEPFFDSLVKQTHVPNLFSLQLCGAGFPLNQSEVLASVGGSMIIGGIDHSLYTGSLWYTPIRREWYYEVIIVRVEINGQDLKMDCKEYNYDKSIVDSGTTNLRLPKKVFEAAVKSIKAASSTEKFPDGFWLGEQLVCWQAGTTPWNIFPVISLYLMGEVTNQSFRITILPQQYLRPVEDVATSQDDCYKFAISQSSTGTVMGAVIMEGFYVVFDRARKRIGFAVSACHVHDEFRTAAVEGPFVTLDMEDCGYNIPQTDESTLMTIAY
assay: fluorescence anisotropy, pH 4.5 (value quoted for the labeled EBP used in the truncation screen)
Where no end group is shown, it is not given here.
measuredParameter: Kd
Form entry: enter the amount, then its unit.

Qu. Given the entry NLTTYPYFIPLP (also: Alexa488 label, position shown only) [Molecule X (… labeled with Alexa488)] , report its measured Kd.
Ans. 1000 nM
